assay name: Selectivity index, ratio of IC50 for rat L6 cells to IC50 for chloroquine and pyrimethamine resistant Plasmodium falciparum K1
Type: toxicity
test conditions: read-out: Ratio IC50
test readout: selectivity ratio
A bare number is all that is needed in reply.

Some entries whose results are on file:
1. CC1(C)C(Cc2ccccc2)C(=[N+]2CCCC2)C=CN1Cc1ccccc1 (racemic)
888
2. C[C@@H]1CC[C@H]2[C@@H](C)C(=O)O[C@@H]3O[C@@]4(C)CC[C@@H]1[C@]32OO4 [ARTEMISININ]
132000
3. CC1(C)C(Cc2ccc(C(F)(F)F)cc2)C(=[N+]2CCCC2)C=CN1Cc1ccc(C(F)(F)F)cc1 (racemic)
8520
4. CC1(C)C(Cc2ccccc2)C(=[N+]2CCCCC2)C=CN1Cc1ccccc1 (racemic)
1024

selectivity ratio for CC1(C)C(Cc2ccc(Cl)cc2)C(=[N+]2CCCC2)C=CN1Cc1ccc(Cl)cc1 (racemic) ?
7860

Queued: CC1(C)C(Cc2ccc(Cl)cc2)C(=[N+]2CCCCC2)C=CN1Cc1ccc(Cl)cc1 (racemic)
29200

Queued: CC1(C)C(Cc2c(Cl)cccc2Cl)C(=[N+]2CCCC2)C=CN1Cc1ccc(Cl)cc1 (racemic)
755

---

Test system: Trypanosoma brucei rhodesiense
assay name: Trypanocidal activity against Trypanosoma brucei rhodesiense STIB900 incubated for 70 hrs by Alamar blue assay
Type: functional, organism-based
test conditions: STIB900, 70 h
pIC50: −log10 of the molar value.
Where pIC50 equals or exceeds 7, the correct label is YES; where it does not, the label is NO.

Please review the following examples before continuing.
1. CC1(C)C(Cc2ccc(Br)cc2)C(=[N+]2CCCC2)C=CN1Cc1ccccc1 (racemic)
NO
2. CC1(C)C(Cc2ccc(Cl)cc2)C(=[N+]2CCCC2)C=CN1Cc1ccccc1 (racemic)
NO

Is it the case that CC(C)(C)c1ccc(CC2C(=[N+]3CCCC3)C=CN(Cc3ccccc3)C2(C)C)cc1 (racemic) has pIC50 reaching or exceeding 7?
YES

Queued: CC1(C)C(Cc2ccccc2)C(=[N+]2CCCCC2)C=CN1Cc1ccccc1 (racemic)
YES

Queued: CC1(C)C(Cc2ccc([N+](=O)[O-])cc2)C(=[N+]2CCCC2)C=CN1Cc1ccccc1 (racemic)
NO

---

assay name: Selectivity index, ratio of IC50 for rat L6 cells to IC50 for Trypanosoma brucei rhodesiense STIB900
Format: toxicity
test conditions: read-out: Ratio IC50
Where selectivity ratio equals or exceeds 200, the correct label is y; where it does not, the label is n.

Please review the following examples before continuing.
1. Nc1nc(N)nc(Nc2ccc([As]3SCC(CO)S3)cc2)n1 (configuration not stated) [MELARSOPROL]
y
2. CC(C)(C)c1ccc(CC2C(=[N+]3CCCC3)C=CN(Cc3ccccc3)C2(C)C)cc1 (racemic)
n
3. CC1(C)C(Cc2ccc(Cl)cc2Cl)C(=[N+]2CCCC2)C=CN1Cc1ccccc1 (racemic)
y
4. CC1(C)C(Cc2ccc(Cl)cc2)C(=[N+]2CCCC2)C=CN1Cc1ccc(Cl)cc1 (racemic)
n
5. CC(C)c1ccc(CC2C(=[N+]3CCCC3)C=CN(Cc3ccccc3)C2(C)C)cc1 (racemic)
n

Is it the case that CC1(C)C(Cc2ccc(Cl)cc2)C(=[N+]2CCCC2)C=CN1Cc1ccccc1 (racemic) has selectivity ratio reaching or exceeding 200?
n

Queued: CC1(C)C(Cc2c(Cl)cccc2Cl)C(=[N+]2CCCC2)C=CN1Cc1ccccc1 (racemic)
y

---

selectivity ratio overview
assay name: Selectivity index, ratio of IC50 for rat L6 cells to IC50 for Trypanosoma brucei rhodesiense STIB900
Format: toxicity
test conditions: read-out: Ratio IC50
A bare number is all that is needed in reply.

Some entries whose results are on file:
1) CC1(C)C(Cc2ccc(C(F)(F)F)cc2)C(=[N+]2CCCC2)C=CN1Cc1ccc(C(F)(F)F)cc1 (racemic)
62.9
2) CC1(C)C(Cc2ccccc2)C(=[N+]2CCCCC2)C=CN1Cc1ccccc1 (racemic)
558
3) CC1(C)C(Cc2ccc(Br)cc2)C(=[N+]2CCCC2)C=CN1Cc1ccccc1 (racemic)
192

selectivity ratio for CC1(C)C(Cc2ccccc2C(F)(F)F)C(=[N+]2CCCC2)C=CN1Cc1ccccc1 (racemic) ?
776

Queued: CC1(C)C(Cc2c(Cl)cccc2Cl)C(=[N+]2CCCC2)C=CN1Cc1ccc(Cl)cc1 (racemic)
87.1

---

Test system: Plasmodium falciparum
assay name: Antiplasmodial activity against Plasmodium falciparum NF54 erythrocytic stages assessed as reduction in [3H]hypoxanthine incorporation measured after 48 hrs by liquid scintillation counting method
Format: functional, organism-based
log10 of IC50 overview
Short version: log10 scale, IC50, nM.

Some entries whose results are on file:
1) CC(C)c1ccc(CC2C(=[N+]3CCCC3)C=CN(Cc3ccccc3)C2(C)C)cc1 (racemic)
1.59
2) CC1(C)C(Cc2ccccc2)C(=[N+]2CCCC2)C=CN1Cc1ccccc1 (racemic)
1.51

log10 of IC50 for CC1(C)C(Cc2ccc(C#N)cc2)C(=[N+]2CCCC2)C=CN1Cc1ccccc1 (centres undefined) ?
1.23

Queued: CC1(C)C(Cc2ccc(Cl)cc2Cl)C(=[N+]2CCCC2)C=CN1Cc1ccccc1 (racemic)
1.26

Queued: CC1(C)C(Cc2ccccc2C(F)(F)F)C(=[N+]2CCCC2)C=CN1Cc1ccccc1 (racemic)
1.93

Queued: CC1(C)C(Cc2ccc(Br)cc2)C(=[N+]2CCCC2)C=CN1Cc1ccccc1 (racemic)
0.89

Queued: CC(C)(C)c1ccc(CC2C(=[N+]3CCCC3)C=CN(Cc3ccccc3)C2(C)C)cc1 (racemic)
1.48

---

assay name: Selectivity index, ratio of IC50 for rat L6 cells to IC50 for Plasmodium falciparum NF54
Format: toxicity
test conditions: read-out: Ratio IC50
test readout: selectivity ratio
A bare number is all that is needed in reply.

Some entries whose results are on file:
1) CC1(C)C(Cc2ccc(Cl)cc2)C(=[N+]2CCCCC2)C=CN1Cc1ccc(Cl)cc1 (racemic)
2920
2) CC1(C)C(Cc2ccc(C(F)(F)F)cc2)C(=[N+]2CCCC2)C=CN1Cc1ccc(C(F)(F)F)cc1 (racemic)
3180
3) CC1(C)C(Cc2c(Cl)cccc2Cl)C(=[N+]2CCCC2)C=CN1Cc1ccccc1 (racemic)
483
4) CC1(C)C(Cc2ccc(Br)cc2)C(=[N+]2CCCC2)C=CN1Cc1ccccc1 (racemic)
4480

selectivity ratio for CC1(C)C(Cc2ccccc2)C(=[N+]2CCCC2)C=CN1Cc1ccccc1 (racemic) ?
1530

---

inhibition at 50 µM overview
System: HCT-116
assay name: Cytotoxicity against human HCT-116 cells assessed as inhibition of cell growth at 50 uM after 72 hrs by XTT assay relative to control
Format: functional
Field format: number, assumed %, no unit text.

Some entries whose results are on file:
1) CC1(C)C(Cc2c(Cl)cccc2Cl)C(=[N+]2CCCC2)C=CN1Cc1ccc(Cl)cc1 (racemic)
100
2) CC1(C)C(Cc2ccc(Cl)cc2)C(=[N+]2CCCCC2)C=CN1Cc1ccc(Cl)cc1 (racemic)
100

# ---- query compound ----
inhibition at 50 µM for CC1(C)C(Cc2ccc(Cl)cc2)C(=[N+]2CCCC2)C=CN1Cc1ccc(Cl)cc1 (racemic) ?
100

---

System: Trypanosoma brucei rhodesiense
assay name: Trypanocidal activity against Trypanosoma brucei rhodesiense STIB900 incubated for 70 hrs by Alamar blue assay
Assay type: functional, organism-based
test conditions: STIB900, 70 h
test readout: IC50 (nM)
Field format: number, assumed nM, no unit text.

1. CC1(C)C(Cc2c(Cl)cccc2Cl)C(=[N+]2CCCC2)C=CN1Cc1c(Cl)cccc1Cl (racemic)
24

IC50 for CC1(C)C(Cc2ccc(C(F)(F)F)cc2)C(=[N+]2CCCC2)C=CN1Cc1ccccc1 (racemic) ?
320

Queued: CC1(C)C(Cc2ccc(Cl)cc2)C(=[N+]2CCCC2)C=CN1Cc1ccc(Cl)cc1 (racemic)
170

Queued: CC1(C)C(Cc2c(Cl)cccc2Cl)C(=[N+]2CCCC2)C=CN1Cc1ccc(Cl)cc1 (racemic)
52

Queued: CC1(C)C(Cc2ccc(C(F)(F)F)cc2)C(=[N+]2CCCC2)C=CN1Cc1ccc(C(F)(F)F)cc1 (racemic)
420

---

Tested on: Trypanosoma brucei rhodesiense
assay name: Trypanocidal activity against Trypanosoma brucei rhodesiense STIB900 incubated for 70 hrs by Alamar blue assay
Format: functional, organism-based
test conditions: STIB900, 70 h
IC50 overview
Field format: number, assumed µM, no unit text.

Some entries whose results are on file:
1. CC1(C)C(Cc2ccc(Cl)cc2Cl)C(=[N+]2CCCC2)C=CN1Cc1ccccc1 (racemic)
0.11
2. CC1(C)C(Cc2c(Cl)cccc2Cl)C(=[N+]2CCCC2)C=CN1Cc1ccccc1 (racemic)
0.063
3. CC1(C)C(Cc2ccccc2)C(=[N+]2CCCC2)C=CN1Cc1ccccc1 (racemic)
0.13

# ---- query molecule ----
IC50 for CC1(C)C(Cc2ccccc2C(F)(F)F)C(=[N+]2CCCC2)C=CN1Cc1ccccc1 (racemic) ?
0.1
